Target: LOX (Mus musculus, UniProt P28301)
Construct: Full length LOX cDNA was then PCR cloned into pEGFP-N1 (Clonetech), or biosensor vector proGFP2-N1; expressed in transfected cells; host or cells: MDCK cells grown as cysts on Matrigel, G418-selected
Sequence (P28301 163-411): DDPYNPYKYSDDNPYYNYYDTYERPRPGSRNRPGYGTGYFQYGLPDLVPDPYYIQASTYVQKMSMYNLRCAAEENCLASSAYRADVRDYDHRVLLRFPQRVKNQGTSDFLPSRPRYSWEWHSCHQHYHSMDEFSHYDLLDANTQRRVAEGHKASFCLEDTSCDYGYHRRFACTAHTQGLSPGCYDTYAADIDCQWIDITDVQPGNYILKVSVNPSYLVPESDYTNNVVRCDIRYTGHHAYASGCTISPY
Test: LOX activity in cysts assay (LOX-roGFP2 biosensor, MDCK cysts)
Assay type: cell-based
Settings: 2.5 uM (stated in cell); MDCK cysts; DMSO = 0%, BAPN 1 mM = 100% inhibition; read-out: LOX biosensor inhibition (cyst) @ 2.5 uM
Readout kind: inhibition at 2.5 µM (%)
Response body: numeric value in %, unit text excluded.

[Q] Consider the compound CCNC(=O)N1C[C@@H]2CN(c3ccc(F)cc3)[C@H](C1)C(C)(C)C2 and give its measured inhibition at 2.5 µM.
[A] 92

[Q] Form field: reported inhibition at 2.5 µM of CCOc1ccc(N2C[C@H]3CN(C(=O)N4CCC(C#N)CC4)C[C@@H]2C(C)(C)C3)cc1
[A] 77

[Q] Recorded inhibition at 2.5 µM for CC1(C)C[C@@H]2CN(C(=O)N3CCS(=O)(=O)CC3)C[C@H]1N(c1ccc(N3CCS(=O)(=O)CC3)cc1)C2 , please?
[A] 100

[Q] # inhibition at 2.5 µM lookup, item C#CCCCN1C[C@@H]2CN(c3ccc(OCC)cc3)[C@H](C1)C(C)(C)C2
[A] 66

---

Molecular target: LOX (Mus musculus)
Construct: Full length LOX cDNA was then PCR cloned into pEGFP-N1 (Clonetech), or biosensor vector proGFP2-N1; expressed in transfected cells; host or cells: MDCK cells grown as cysts on Matrigel, G418-selected
Assay: LOX activity in cysts assay (LOX-roGFP2 biosensor, MDCK cysts)
Assay type: cell-based
Settings: 10 uM; MDCK cysts; inhibitor added 30 min prior to imaging; DMSO = 0%, BAPN 1 mM = 100% inhibition; read-out: LOX biosensor inhibition (cyst) @ 10 uM
Readout kind: inhibition at 10 µM
Answer by giving the amount and then stating its unit.

[Q] Missing value: inhibition at 10 µM, LOX (Mus musculus), entry CC1(C)C[C@@H]2CN(C(=O)NCCO)C[C@H]1N(c1ccc(C=O)cc1)C2 . Fill in?
[A] 86%

[Q] Request body: readout inhibition at 10 µM, system LOX (Mus musculus), query CCOc1ccc(N2C[C@H]3CN(C(=O)NNCCO)C[C@@H]2C(C)(C)C3)cc1 (stereo in doubt) . Return the value.
[A] 100%

[Q] Fill in the recorded inhibition at 10 µM for this compound, with LOX (Mus musculus) as test system: CCOc1ccc(N2C[C@@H]3CC4(CCCCC4)[C@H]2CCN3C(=O)NCCO)cc1
[A] 100%

[Q] Checklist item: inhibition at 10 µM tested on LOX (Mus musculus), entry CCOc1cccc(N2C[C@H]3CN(C(=O)NCCO)C[C@@H]2C(C)(C)C3)c1 , value?
[A] 100%

[Q] What is its inhibition at 10 µM for LOX (Mus musculus)? Entry: CCOc1ccc(N2C[C@H]3CN(C(=O)CNC(=N)CN)C[C@@H]2C(C)(C)C3)cc1
[A] 100%

[Q] What reported inhibition at 10 µM corresponds to CC1(C)C[C@@H]2CN(C(=O)NCCO)C[C@H]1N(c1ccc(N3CCC(F)(F)CC3)cc1)C2 on LOX (Mus musculus)?
[A] 100%

[Q] Please provide the recorded inhibition at 10 µM for CCOc1ccc(N2C[C@H]3CN(S(=O)(=O)c4ccc(F)cc4)C[C@@H]2C(C)(C)C3)cc1 , tested on LOX (Mus musculus).
[A] 100%

[Q] Please tell me: inhibition at 10 µM of COCCOc1ccc(N2C[C@H]3CN(C(=O)NCCO)C[C@@H]2C(C)(C)C3)cc1 , system LOX (Mus musculus)?
[A] 88%

[Q] Lab note: need inhibition at 10 µM for CCOc1ccc(N2C[C@H]3CN(C(=O)CCc4cccnc4)C[C@@H]2C(C)(C)C3)cc1 on LOX (Mus musculus), anyone have it?
[A] 100%
